Consider the following compounds; for each one, report its pKd.
target: YTHDC2 (Homo sapiens, UniProt Q9H6S0); construct: YTH domain of YTHDC2 (residues 1285–1424, cloned into the pGEX-6P-1 vector); made in house; host or cells: Rosetta (DE3) cells (E. coli); assay: DNA-fluorescence polarization (FP) competition assay, DC2; assay type: binding; conditions: Cheng-Prusoff from FP IC50, probe Kd 7 nM; two biological replicates
Sequence (Q9H6S0 1285-1424): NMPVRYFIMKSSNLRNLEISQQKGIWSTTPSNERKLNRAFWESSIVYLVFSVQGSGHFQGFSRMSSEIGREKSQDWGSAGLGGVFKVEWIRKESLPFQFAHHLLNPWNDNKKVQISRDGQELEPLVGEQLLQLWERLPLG
// returns pKd (minus log10 of molar concentration), number only

Kindly note the recorded pKd for Cc1c(C(=O)NCc2ccccc2)sc2[nH]c(=S)[nH]c(=O)c12 , which is 3.57

Kindly note the recorded pKd for O=c1[nH]c(=S)[nH]c2sccc12 , which is 4.06

Kindly note the recorded pKd for Cc1c(C(=O)NCc2cccc(C(=O)O)c2)sc2[nH]c(=S)[nH]c(=O)c12 , which is 4.39

Kindly note the recorded pKd for O=C(O)c1ccc(Cc2cc3c(=O)[nH]c(=S)[nH]c3s2)cc1 , which is 4.00

Kindly note the recorded pKd for COc1ccc(-c2csc3[nH]c(=S)[nH]c(=O)c23)cc1 , which is 4.27

Kindly note the recorded pKd for O=c1[nH]c(=S)[nH]c2scc(C3CCCCC3)c12 , which is 3.62

Kindly note the recorded pKd for O=C(O)c1ccc(-c2csc3[nH]c(=S)[nH]c(=O)c23)cc1 , which is 5.11
